These entries and their values trace back to paper PMC12799549.

Target: ENT2 (Homo sapiens)
Sequence (Q14542 1-456): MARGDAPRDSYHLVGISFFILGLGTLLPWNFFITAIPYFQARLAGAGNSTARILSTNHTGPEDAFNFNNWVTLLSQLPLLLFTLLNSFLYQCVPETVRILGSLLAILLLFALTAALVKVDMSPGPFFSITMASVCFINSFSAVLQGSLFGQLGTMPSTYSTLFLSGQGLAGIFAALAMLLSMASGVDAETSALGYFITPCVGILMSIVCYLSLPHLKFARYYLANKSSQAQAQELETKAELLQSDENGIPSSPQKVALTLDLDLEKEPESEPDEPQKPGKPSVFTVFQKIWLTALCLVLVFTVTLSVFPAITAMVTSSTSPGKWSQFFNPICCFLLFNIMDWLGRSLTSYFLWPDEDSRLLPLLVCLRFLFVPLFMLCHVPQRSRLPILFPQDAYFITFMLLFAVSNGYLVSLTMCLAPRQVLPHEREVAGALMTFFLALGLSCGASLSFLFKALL
Assay: Inhibition of [3H]2-chloroadenosine uptake in ENT1KO cells
Property: pKi; scope: individual compounds
The meaning of pKi here: minus log10 of the concentration in molar units.

[
  {
    "Compound": "Nc1nc(Cl)nc2c1ncn2[C@@H]1O[C@H](CO)[C@@H](O)[C@@H]1F [Clofarabine, clofarabine]",
    "Obs value": 4.12
  }
]

# next compound below
IN: Which pKi value is on record for Nc1ncnc2c1ncn2[C@@H]1O[C@H](CO)[C@@H](O)[C@@H]1O [Vidarabine] ?
OUT: 4.22
